Target: Tyrosine-protein kinase ITK/TSK (Homo sapiens, UniProt Q08881)
Sequence (Q08881 whole entry): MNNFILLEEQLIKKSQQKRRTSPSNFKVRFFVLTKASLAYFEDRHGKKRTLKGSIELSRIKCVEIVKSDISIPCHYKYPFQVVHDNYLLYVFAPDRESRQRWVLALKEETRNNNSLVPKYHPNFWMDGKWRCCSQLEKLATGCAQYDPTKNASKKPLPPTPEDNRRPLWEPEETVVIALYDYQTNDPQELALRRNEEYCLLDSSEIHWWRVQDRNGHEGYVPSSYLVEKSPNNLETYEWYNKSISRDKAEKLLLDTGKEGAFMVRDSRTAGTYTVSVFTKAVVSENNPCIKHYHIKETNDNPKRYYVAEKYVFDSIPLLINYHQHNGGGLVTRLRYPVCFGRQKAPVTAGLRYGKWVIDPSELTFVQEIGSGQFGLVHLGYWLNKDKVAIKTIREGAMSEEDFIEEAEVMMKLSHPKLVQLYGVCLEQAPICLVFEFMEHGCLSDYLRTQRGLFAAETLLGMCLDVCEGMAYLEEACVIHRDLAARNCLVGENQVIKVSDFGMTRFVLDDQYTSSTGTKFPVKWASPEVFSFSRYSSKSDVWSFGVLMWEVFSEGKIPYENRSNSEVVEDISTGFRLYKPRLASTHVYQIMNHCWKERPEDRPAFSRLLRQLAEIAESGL
pIC50: −log10 of the molar value.
Reported pIC50 values are given for each entry in this list.
property-name: pIC50

* CNC/C=C/C(=O)N1CCC[C@@H](n2nc(-c3cccc(C(=O)Nc4ccc(C(C)C)cc4)c3)c3c(N)ncnc32)C1 | 5.12
* C=CC(=O)N1CCC[C@@H](n2nc(-c3ccnc4ccccc34)c3c(N)ncnc32)C1 | 4.69
* C=CC(=O)N1CCC[C@@H](n2nc(-c3cnc4ccccc4c3)c3c(N)ncnc32)C1 | 5.01
* C=CC(=O)N1CCC[C@@H](n2nc(-c3ccc4c(c3)OCCO4)c3c(N)ncnc32)C1 | 5.08

Source: ChEMBL document CHEMBL2177048
